# Test system: clinical P. aeruginosa isolates
# assay_details: microbe, parasite or virus in culture
# test_parameters: Pseudomonas aeruginosa, 18 h, read-out: Antibiotic sensibility (MIC) of clinical P. aeruginosa isolate AUMC-Pa-2, strain AUMC-Pa-2; antibiotic alone
Binary call on MIC with cut-off 100 µM: strictly below means Yes, and equality or higher means No.

Here are 2 compounds together with their reported answers.
INSERT INTO measurements (compound, group_label) VALUES
  ('COc1cc(Cc2cnc(N)nc2N)cc(OC)c1OC [Trimethoprim]', 'No'),
  ('O=C(N[C@H](CO)[C@H](O)c1ccc([N+](=O)[O-])cc1)C(Cl)Cl [Chloramphenicol]', 'No');

As a next step, examine the compound that follows.
is_below(MIC, 100 µM) for CC1(C)S[C@@H]2[C@H](NC(=O)[C@H](N)c3ccc(O)cc3)C(=O)N2[C@H]1C(=O)O [Amoxicin, Amoxicillin] ? No

====

# Test system: P. aeruginosa PA14
# assay_details: microbe, parasite or virus in culture
# Design: unit not given beside the values
# test_parameters: strain PA14; with D-11 at MICbc 4; unit not given
Please go through the items and note down their MICac: MIC of the antibiotic in the combination.
Numbers only.

INSERT INTO measurements (molecular_string, assayed_target, data_value) VALUES
  ('CO[C@H]1/C=C/O[C@@]2(C)Oc3c(C)c(O)c4c(O)c(c5c(nc6cc(C)ccn65)c4c3C2=O)NC(=O)/C(C)=C\C=C\[C@H](C)[C@H](O)[C@@H](C)[C@@H](O)[C@@H](C)[C@H](OC(C)=O)[C@@H]1C', 'P. aeruginosa PA14', 16),
  ('C[C@H]1[C@H](NC(=O)/C(=N\OC(C)(C)C(=O)O)c2csc(N)n2)C(=O)N1S(=O)(=O)O', 'P. aeruginosa PA14', 8);

Shifting focus to the compound that follows.
Tested system P. aeruginosa PA14; MICac: MIC of the antibiotic in the combination recorded for C[C@@H]1O[C@@H]1P(=O)(O)O was 32

====

Give MIC for every item shown.
# Tested on: P. aeruginosa PAO1
# assay_details: microbe, parasite or virus in culture
# test_parameters: Pseudomonas aeruginosa, PAO1, 18 h, read-out: MICa: the MIC of antibiotics
Answers are plain numbers, in µM.

INSERT INTO assay_data (molecular_string, data_value) VALUES
  ('CO[C@H]1[C@H](OC(=O)c2ccc(C)[nH]2)[C@H](O)[C@@H](Oc2ccc3c(O)c(NC(=O)c4c[nH]c(C(=O)Nc5c(O)c6ccc(O[C@H]7OC(C)(C)[C@@H](OC)[C@H](OC(=O)c8ccc(C)[nH]8)[C@@H]7O)c(C)c6oc5=O)c4C)c(=O)oc3c2C)OC1(C)C', 8);

What the record says about CO[C@@H]1[C@@H](OC(=O)c2ccc(C)[nH]2)[C@@H](O)[C@H](Oc2ccc3c(O)c(NC(=O)c4ccc(O)c(CC=C(C)C)c4)c(=O)oc3c2Cl)OC1(C)C : MIC is 0.5

====

# Test system: P. aeruginosa PA14
# assay_details: microbe, parasite or virus in culture
# Set-up: unit not given beside the values
# test_parameters: strain PA14; antibiotic alone; unit not given
Positions of bridges follow the written chain, without caps; N, C: chain ends. Non-standard residues stand in square brackets, D forms with d. Residues, ends and D or L forms follow the SMILES beside them. *: point of attachment. X1 = CC[C@H](C)CCCCC(=O)*; Dab = NCC[C@H](N)C(=O)O
Field: MICa: MIC of the antibiotic. Provide a value for each of the compounds that follow.
Give bare numbers.

Use the examples below as a reference point.
INSERT INTO results (compound, data_value) VALUES
  ('CC[C@H]1OC(=O)[C@H](C)[C@@H](O[C@H]2C[C@@](C)(OC)[C@@H](O)[C@H](C)O2)[C@H](C)[C@@H](O[C@@H]2O[C@H](C)C[C@H](N(C)C)[C@H]2O)[C@](C)(OC)C[C@@H](C)C(=O)[C@H](C)[C@@H](O)[C@]1(C)O [Clarithromycin]', 128),
  ('CN(C)c1cc(NC(=O)CNC(C)(C)C)c(O)c2c1C[C@H]1C[C@H]3[C@H](N(C)C)C(O)=C(C(N)=O)C(=O)[C@@]3(O)C(O)=C1C2=O [Tigecycline]', 4),
  ('CC[C@H]1OC(=O)[C@H](C)C(=O)[C@H](C)[C@@H](O[C@@H]2O[C@H](C)C[C@H](N(C)C)[C@H]2O)[C@](C)(OC)C[C@@H](C)C(=O)[C@H](C)[C@H]2N(CCCCn3cnc(-c4cccnc4)c3)C(=O)O[C@]12C [Telithromycin]', 64),
  ('O=C(N[C@H](CO)[C@H](O)c1ccc([N+](=O)[O-])cc1)C(Cl)Cl [Chloramphenicol]', 128),
  ('CC[C@H](C)CCCCC(=O)N[C@@H](CCN)C(=O)N[C@H](C(=O)N[C@@H](CCN)C(=O)N[C@H]1CCNC(=O)[C@H]([C@@H](C)O)NC(=O)[C@H](CCN)NC(=O)[C@H](CCN)NC(=O)[C@H](CC(C)C)NC(=O)[C@@H](CC(C)C)NC(=O)[C@H](CCN)NC1=O)[C@@H](C)O [Colistin] (X1-[Dab]T[Dab][Dab][Dab][dL]L[Dab][Dab]T; lactam 4-C (inferred); N-terminus assumed)', 0.25),
  ('C[C@@H]1O[C@@H]1P(=O)(O)O [Fosfomycin]', 128),
  ('C[C@H]1[C@H](NC(=O)/C(=N\OC(C)(C)C(=O)O)c2csc(N)n2)C(=O)N1S(=O)(=O)O [Aztreonam]', 16),
  ('CN(C)c1ccc(O)c2c1C[C@H]1C[C@H]3[C@H](N(C)C)C(O)=C(C(N)=O)C(=O)[C@@]3(O)C(O)=C1C2=O [Minocycline]', 16);

Dear reader, for each entry below, please note its MICa: MIC of the antibiotic.
1. CN(C)[C@@H]1C(O)=C(C(N)=O)C(=O)[C@@]2(O)C(O)=C3C(=O)c4c(O)c(NC(=O)CN5CCCC5)cc(F)c4C[C@H]3C[C@@H]12 [Eravacycline]
2. CC[C@H]1OC(=O)[C@H](C)[C@@H](O[C@H]2C[C@@](C)(OC)[C@@H](O)[C@H](C)O2)[C@H](C)[C@@H](O[C@@H]2O[C@H](C)C[C@H](N(C)C)[C@H]2O)[C@](C)(O)C[C@@H](C)CN(C)[C@H](C)[C@@H](O)[C@]1(C)O [Azithromycin]
3. C[C@H]1c2cccc(O)c2C(=O)C2=C(O)[C@]3(O)C(=O)C(C(N)=O)=C(O)[C@@H](N(C)C)[C@@H]3[C@@H](O)[C@@H]21 [Doxycycline]
4. CC[C@H](C)CCCCC(=O)N[C@@H](CCN)C(=O)N[C@H](C(=O)N[C@@H](CCN)C(=O)N[C@H]1CCNC(=O)[C@H]([C@@H](C)O)NC(=O)[C@H](CCN)NC(=O)[C@H](CCN)NC(=O)[C@H](CC(C)C)NC(=O)[C@@H](Cc2ccccc2)NC(=O)[C@H](CCN)NC1=O)[C@@H](C)O [Polymyxin B] (X1-[Dab]T[Dab][Dab][Dab][dF]L[Dab][Dab]T; lactam 4-C (inferred); N-terminus assumed)

1. 8
2. 128
3. 16
4. 0.125

====

# Tested on: clinical P. aeruginosa isolates
# assay_details: microbe, parasite or virus in culture
# test_parameters: Pseudomonas aeruginosa, 18 h, read-out: Antibiotic sensibility (MIC) of clinical P. aeruginosa isolate AUMC-Pa-1
observable: MIC (µM)
Give bare numbers, in µM.

INSERT INTO assay_data (compound, observable, data_value) VALUES
  ('CO[C@H]1[C@H](OC(=O)c2ccc(C)[nH]2)[C@H](O)[C@@H](Oc2ccc3c(O)c(NC(=O)c4c[nH]c(C(=O)Nc5c(O)c6ccc(O[C@H]7OC(C)(C)[C@@H](OC)[C@H](OC(=O)c8ccc(C)[nH]8)[C@@H]7O)c(C)c6oc5=O)c4C)c(=O)oc3c2C)OC1(C)C [Coumermycin A1]', 'MIC', 8);

Then this compound:
Measured MIC of CO[C@@H]1[C@@H](OC(=O)c2ccc(C)[nH]2)[C@@H](O)[C@H](Oc2ccc3c(O)c(NC(=O)c4ccc(O)c(CC=C(C)C)c4)c(=O)oc3c2Cl)OC1(C)C [Chlorobiocin] : 4

====

Can you tell me MIC for the items I'm about to list?
# System: clinical P. aeruginosa isolates
# assay_details: microbe, parasite or virus in culture
# test_parameters: Pseudomonas aeruginosa, 18 h, read-out: Antibiotic sensibility (MIC) of clinical P. aeruginosa isolate NR-31041, strain NR-31041; antibiotic alone
Answers are plain numbers, in µM.

INSERT INTO assay_data (molecular_string, observable, data_value) VALUES
  ('CC[C@H]1OC(=O)[C@H](C)[C@@H](O[C@H]2C[C@@](C)(OC)[C@@H](O)[C@H](C)O2)[C@H](C)[C@@H](O[C@@H]2O[C@H](C)C[C@H](N(C)C)[C@H]2O)[C@](C)(OC)C[C@@H](C)C(=O)[C@H](C)[C@@H](O)[C@]1(C)O', 'MIC', 128);

Please turn your attention to the following entry.
Reported MIC ( CN(C)c1cc(NC(=O)CNC(C)(C)C)c(O)c2c1C[C@H]1C[C@H]3[C@H](N(C)C)C(O)=C(C(N)=O)C(=O)[C@@]3(O)C(O)=C1C2=O ) = 8
